TEST: in vitro
PROTOCOL_CONDITIONS: human, Caco-2, pH 7.4
Assign class by efflux ratio at 60 min, 10 µM: not lower than 0.9 means Criterion met; lower than 0.9 means Criterion not met.

COMPOUND	CLASS
CC(CN)c1ccccc1 (stereo not drawn) [β-Methylphenethylamine, β-methylphenethylamine]	Criterion not met
Oc1ccc(CC2NCCc3cc(O)c(O)cc32)cc1 (stereo not shown) [Higenamine, higenamine]	Criterion met
NCCc1ccccc1 [Phenethylamine, phenethylamine]	Criterion not met
CN(C)CCc1ccc(O)cc1 [Hordenine, hordenine]	Criterion not met
CNCC(O)c1ccccc1 (stereo not shown) [Halostachine, halostachine]	Criterion not met
CNC(C)C(O)c1ccc(O)cc1 (stereo not shown) [Methylsynephrine]	Criterion met

---

TEST: In vitro hepatic clearance by human liver S9 (compound depletion)
Format: in vitro ADME
PROTOCOL_CONDITIONS: human, pH 7.4
Protocol: In vitro intrinsic hepatic clearance (CLint) values of the phenethylamine analogues were determined in experiments with pooled human liver S9 (HLS9; Corning, Woburn, MA, USA and Gibco, USA), by measuring the rate of compound depletion. […] After determining the PEA (analogue) amount at the different time points, the CLint was calculated. […] The half-life (t1/2 in minutes) was calculated by: ln (2)/k (in 1/min). […] Finally, CLint could be calculated by: CLintμL/min/mg protein=VμL/mg protein∗ln2/t1/2min. […]
Item-by-item account of k el at 1 µM
RECORDED_METRIC: k el at 1 µM (s⁻¹)

MOLECULE	RECORDED_METRIC	OBSERVED
NCC(O)c1ccc(O)cc1 (centres unmarked)	k el at 1 µM	0.000203
CC(C)NCC(O)c1ccc(O)cc1 (centres unmarked)	k el at 1 µM	7.17e-05

---

System: ADRα1D
TEST: PBK modelling-based reverse dosimetry of in vitro EC50 to ED50, ADRα1D
PROTOCOL_CONDITIONS: predicted human oral ED50 from in vitro EC50 (Pinckaers et al. [2024]) and modelled Cmax plasma venous
Assign class by ADRα1D ED50: not lower than 2 mg/kg bw means 1.0; lower than 2 mg/kg bw means 0.0.

MOLECULE	CLASS
CN(C)CCc1ccccc1	1.0
NCC(O)c1ccc(O)cc1 (centres unmarked)	0.0
CN(C)CCc1ccc(O)cc1	1.0
CNCC(O)c1ccccc1 (centres unmarked)	1.0
CNCC(O)c1ccc(O)cc1 (centres unmarked) [p-Synephrine, Synephrine]	1.0

---

TEST: in vitro
PROTOCOL_CONDITIONS: human, Caco-2, pH 7.4, Papp A-B, Caco-2, apical to basolateral, 10 µM, HBSS pH 7.4, mean ± SD, duplicate
Item-by-item account of Papp A→B at 60 min, 10 µM
RECORDED_METRIC: Papp A→B at 60 min, 10 µM (×10⁻⁶ cm/s)

COMPOUND	OBSERVED
NCCc1ccc(O)cc1	2.38
COCCc1ccc(OCC(O)CNC(C)C)cc1 (stereo not drawn) [Metoprolol, metoprolol, reference compound]	11.2
CN(C)CCc1ccc(O)cc1	13
CC(C)NCC(O)c1ccc(O)cc1 (stereo not drawn)	0.703
NCC(O)c1ccc(O)cc1 (stereo not drawn)	0.164
CNCC(O)c1ccccc1 (stereo not drawn)	13.1
CNCC(O)c1ccc(O)cc1 (stereo not drawn) [p-Synephrine, Synephrine]	0.951
CN(C)CCc1ccccc1	14.7
CNC(C)C(O)c1ccc(O)cc1 (stereo not drawn) [Methylsynephrine]	0.353
Oc1ccc(CC2NCCc3cc(O)c(O)cc32)cc1 (stereo not drawn)	0.061
NCCc1ccccc1	2.88
CC(CN)c1ccccc1 (stereo not drawn)	15.8
